Source of measurements: the supplement of paper PMC10567573

B1: SOAT2 (parent)
chain: SLGKQKVFIIRKSLLDELMEVQHF

- Variants of: B1
- Test summary: protein stability index of a GFP-peptide fusion (GPS, HEK-293T) (PSI 1-6); higher = more stable;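 also: lentivirally expressed fusions sorted by FACS into six bins by GFP to DsRed ratio, PSI derived from sequencing read proportions per bin multiplied by bin number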
- Experimental context: c terminus: a fixed tail appended
Reported property: protein stability index
Please state the value as a number alone, without comment.

// solved cases for protein stability index follow
{"columns": ["Variant", "protein stability index"],
 "data": [
  ["M19K", 2.89],
  ["L15T", 1.54],
  ["V21Q", 4],
  ["E20S", 2.48],
  ["K12D", 3.43],
  ["I9A", 1.99],
  ["E17G", 2.81],
  ["S13A", 1.43],
  ["R11P", 1.78],
  ["S13N", 2.86]
]}

Read the entry "Q22M" and write its reported protein stability index. 2.09

Read off the recorded protein stability index for "L18P" 1.38
